- system name: N^α -AT (AAA1 N^α -acetyltransferase) (Saccharomyces cerevisiae, UniProt P07347+P12945)
- Construct: isolates N^α -acetyltransferase by treating yeast cells with lyticase; endogenous in cells; host or cells: Saccharomyces cerevisiae cells (native enzyme)
- Sequence (P12945 2-854): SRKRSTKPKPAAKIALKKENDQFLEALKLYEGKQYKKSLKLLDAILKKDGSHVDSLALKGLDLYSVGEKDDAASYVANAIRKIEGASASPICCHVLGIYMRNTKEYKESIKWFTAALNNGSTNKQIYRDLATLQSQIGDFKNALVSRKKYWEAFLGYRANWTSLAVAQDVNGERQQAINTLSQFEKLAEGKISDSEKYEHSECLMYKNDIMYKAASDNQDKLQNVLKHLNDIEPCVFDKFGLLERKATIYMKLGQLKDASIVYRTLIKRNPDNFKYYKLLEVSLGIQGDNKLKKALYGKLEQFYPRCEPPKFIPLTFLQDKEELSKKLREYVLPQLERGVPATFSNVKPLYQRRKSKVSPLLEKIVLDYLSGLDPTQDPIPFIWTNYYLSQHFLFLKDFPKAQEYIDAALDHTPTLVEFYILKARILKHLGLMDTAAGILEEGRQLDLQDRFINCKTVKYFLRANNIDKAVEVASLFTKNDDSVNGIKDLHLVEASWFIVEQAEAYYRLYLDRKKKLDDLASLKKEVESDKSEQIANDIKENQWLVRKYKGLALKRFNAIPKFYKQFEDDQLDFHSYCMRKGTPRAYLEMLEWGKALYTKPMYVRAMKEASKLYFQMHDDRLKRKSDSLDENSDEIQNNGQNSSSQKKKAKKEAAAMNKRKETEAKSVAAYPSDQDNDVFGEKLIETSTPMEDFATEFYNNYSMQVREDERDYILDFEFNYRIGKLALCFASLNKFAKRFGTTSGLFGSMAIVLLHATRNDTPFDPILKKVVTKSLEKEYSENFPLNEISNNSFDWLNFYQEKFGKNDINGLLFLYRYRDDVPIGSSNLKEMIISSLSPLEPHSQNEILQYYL
- Sequence (P07347 1-238): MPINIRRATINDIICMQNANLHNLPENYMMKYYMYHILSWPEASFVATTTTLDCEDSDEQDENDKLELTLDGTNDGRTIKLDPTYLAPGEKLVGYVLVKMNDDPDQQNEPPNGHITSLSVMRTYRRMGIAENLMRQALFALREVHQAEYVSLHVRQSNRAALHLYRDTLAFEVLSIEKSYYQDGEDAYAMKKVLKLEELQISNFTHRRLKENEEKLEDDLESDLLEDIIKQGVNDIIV
- test: N^α-acetylation of synthetic peptides by AAA1 N^α-acetyltransferase ([3H]acetyl coenzyme A incorporation)
- Assay type: biochemical
- Design: concentration or dose not given beside the values
- cond: Table 3: relative activity for N^α-acetylation of synthetic peptide substrate; influence of the penultimate amino terminal residue
This listing pairs substances with measured Activity (%) (mean activity ± S.D.) N^α -AT.
Write the answer as a number in %, unit excluded.

substance	system name	measured number
SVPETQKGVIFYESHGKLEYKDIP (SVPETQKGVIFYESHGKLEYKDIP)	N^α -AT (AAA1 N^α -acetyltransferase) (Saccharomyces cerevisiae, UniProt P07347+P12945)	123
SIPETQKGVIFYESHGKLEYKDIP (SIPETQKGVIFYESHGKLEYKDIP) [ALCOHOL DEHYDROGENASE I (1-24) (Yeast), synthetic peptide substrate, yeast alcohol dehydrogenase I residues 1-24, reference compound]	N^α -AT (AAA1 N^α -acetyltransferase) (Saccharomyces cerevisiae, UniProt P07347+P12945)	102
SAPETQKGVIFYESHGKLEYKDIP (SAPETQKGVIFYESHGKLEYKDIP)	N^α -AT (AAA1 N^α -acetyltransferase) (Saccharomyces cerevisiae, UniProt P07347+P12945)	168

Switching to the query record.
Query: # get_value(readout='Activity (%) (mean activity ± S.D.) N^α -AT', item= SHPETQKGVIFYESHGKLEYKDIP (SHPETQKGVIFYESHGKLEYKDIP) )
Reply: 125

---

- system name: N^α -AT (AAA1 N^α -acetyltransferase) (Saccharomyces cerevisiae, UniProt P07347+P12945)
- Construct: isolates N^α -acetyltransferase by treating yeast cells with lyticase; endogenous in cells; host or cells: Saccharomyces cerevisiae cells (native enzyme)
- Sequence (P12945 2-854): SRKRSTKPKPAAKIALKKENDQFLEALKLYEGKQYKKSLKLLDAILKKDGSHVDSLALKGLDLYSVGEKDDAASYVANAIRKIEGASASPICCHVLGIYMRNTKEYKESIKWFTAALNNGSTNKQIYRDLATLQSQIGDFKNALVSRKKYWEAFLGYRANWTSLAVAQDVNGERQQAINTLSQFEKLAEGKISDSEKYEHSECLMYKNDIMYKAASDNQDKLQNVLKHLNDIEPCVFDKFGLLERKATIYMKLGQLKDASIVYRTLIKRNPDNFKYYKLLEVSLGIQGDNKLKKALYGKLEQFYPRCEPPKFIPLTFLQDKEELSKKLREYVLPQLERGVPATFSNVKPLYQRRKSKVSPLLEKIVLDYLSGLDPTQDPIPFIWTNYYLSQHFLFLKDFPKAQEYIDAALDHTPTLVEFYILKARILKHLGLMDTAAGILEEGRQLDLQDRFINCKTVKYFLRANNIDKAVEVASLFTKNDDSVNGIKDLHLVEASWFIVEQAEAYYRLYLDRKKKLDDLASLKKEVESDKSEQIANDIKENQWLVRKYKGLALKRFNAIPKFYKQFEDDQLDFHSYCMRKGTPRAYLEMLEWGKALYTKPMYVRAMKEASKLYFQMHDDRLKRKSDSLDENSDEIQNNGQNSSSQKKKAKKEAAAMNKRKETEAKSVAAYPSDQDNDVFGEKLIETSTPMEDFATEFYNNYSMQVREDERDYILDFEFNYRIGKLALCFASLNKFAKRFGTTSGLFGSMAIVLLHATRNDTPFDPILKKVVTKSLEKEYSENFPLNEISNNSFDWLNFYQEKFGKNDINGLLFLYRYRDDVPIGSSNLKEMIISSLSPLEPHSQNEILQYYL
- Sequence (P07347 1-238): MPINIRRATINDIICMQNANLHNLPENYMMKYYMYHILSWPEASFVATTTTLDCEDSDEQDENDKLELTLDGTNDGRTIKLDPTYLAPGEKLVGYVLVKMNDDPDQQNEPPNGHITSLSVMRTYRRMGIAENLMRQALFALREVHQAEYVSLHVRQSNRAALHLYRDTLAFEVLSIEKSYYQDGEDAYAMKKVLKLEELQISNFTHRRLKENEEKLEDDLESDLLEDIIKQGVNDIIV
- test: N^α-acetylation of synthetic peptides by AAA1 N^α-acetyltransferase ([3H]acetyl coenzyme A incorporation)
- Type: biochemical
- Design: concentration or dose not given beside the values
- cond: Table 2: relative activity for N^α-acetylation of synthetic peptide substrate; influence of the amino terminal residue
measurement label: Activity (%) (mean activity ± S.D.) N^α -AT
All answers are understood in %, so give the number only.

Known results for substances:
substance	measured number
MIPETQKGVIFYESHGKLEYKDIP (MIPETQKGVIFYESHGKLEYKDIP)	15
VIPETQKGVIFYESHGKLEYKDIP (VIPETQKGVIFYESHGKLEYKDIP)	69
DIPETQKGVIFYESHGKLEYKDIP (DIPETQKGVIFYESHGKLEYKDIP)	0
IIPETQKGVIFYESHGKLEYKDIP (IIPETQKGVIFYESHGKLEYKDIP)	0

Query: What Activity (%) (mean activity ± S.D.) N^α -AT appears in the records for this substance with N^α -AT (AAA1 N^α -acetyltransferase) (Saccharomyces cerevisiae, UniProt P07347+P12945)? WIPETQKGVIFYESHGKLEYKDIP (WIPETQKGVIFYESHGKLEYKDIP)
Reply: 0

Query: What measured Activity (%) (mean activity ± S.D.) N^α -AT is associated with KIPETQKGVIFYESHGKLEYKDIP (KIPETQKGVIFYESHGKLEYKDIP) on N^α -AT (AAA1 N^α -acetyltransferase) (Saccharomyces cerevisiae, UniProt P07347+P12945)?
Reply: 0

Query: Please state recorded Activity (%) (mean activity ± S.D.) N^α -AT (tested on N^α -AT (AAA1 N^α -acetyltransferase) (Saccharomyces cerevisiae, UniProt P07347+P12945)) of QIPETQKGVIFYESHGKLEYKDIP (QIPETQKGVIFYESHGKLEYKDIP)
Reply: 0

Query: Reported Activity (%) (mean activity ± S.D.) N^α -AT for N^α -AT (AAA1 N^α -acetyltransferase) (Saccharomyces cerevisiae, UniProt P07347+P12945), given FIPETQKGVIFYESHGKLEYKDIP (FIPETQKGVIFYESHGKLEYKDIP) ?
Reply: 9

Query: Recall the recorded Activity (%) (mean activity ± S.D.) N^α -AT for EIPETQKGVIFYESHGKLEYKDIP (EIPETQKGVIFYESHGKLEYKDIP) with N^α -AT (AAA1 N^α -acetyltransferase) (Saccharomyces cerevisiae, UniProt P07347+P12945) and state it.
Reply: 0
